# target_of_assay: UniProt:P22001
# protocol: Kv1.3 potassium channel blocker activity, automated whole-cell patch clamp (Patchliner)
# stated_conditions: CHO-K1 cells stably expressing Kv1.3; whole cell current inhibition; read-out: Kv1.3_IC50
pIC50: −log10 of the molar value.
Measured pIC50 by item

Reference set (3 entries):
CC[C@@H](N)C(=O)N1CCC([C@@H](N)c2cc(Cl)c(Cl)cc2O)CC1 | > 6.30
N[C@@H](c1cc(Cl)c(Cl)cc1O)C1CCN(C(=O)[C@@H]2CCNC2)CC1 (single isomer, unassigned) | > 6.30
N[C@H](c1cc(Cl)c(Cl)cc1O)[C@@H]1CCN(C(=O)[C@H](O)CO)C1 | > 5.00

The compound NC(c1cc(Cl)c(Cl)cc1O)C1CCN(Cc2ccccc2)CC1 (stereo not drawn) on UniProt:P22001: pIC50 was > 5.00

The compound `N[C@@H](c1cc(Cl)c(Cl)cc1O)C1CCN(c2ccc(O)nc2)CC1` on UniProt:P22001: pIC50 was > 5.00

The compound CC(=O)N1CCC([C@H](N)c2cc(Cl)c(Cl)cc2O)CC1 (single isomer, unassigned) on UniProt:P22001: pIC50 was > 5.00

The compound O=C([C@@H]1CCNC1)N1CCC(C(O)c2c(O)ccc(Cl)c2Cl)CC1 (stereo partly drawn) on UniProt:P22001: pIC50 was > 5.00

The compound `CC1(C(=O)N2CCC([C@@H](N)c3cc(Cl)c(Cl)cc3O)CC2)CNC1` on UniProt:P22001: pIC50 was > 6.30

The compound NC(c1cc(Cl)c(Cl)cc1O)C1CC2CCC(C1)N2 (stereo not drawn) on UniProt:P22001: pIC50 was > 5.00

The compound N[C@@H](c1cc(Cl)c(Cl)cc1O)C1CCN(C(=O)C2CCC(=O)NC2)CC1 (stereo partly drawn) on UniProt:P22001: pIC50 was > 6.30

The compound `O=C([C@@H]1CCNC1)N1CCC(Cc2cc(Cl)c(Cl)cc2O)CC1` on UniProt:P22001: pIC50 was > 6.30

The compound O=C([C@@H]1CCNC1)N1CCC([C@H](O)c2c(O)ccc(Cl)c2Cl)CC1 (single isomer, unassigned) on UniProt:P22001: pIC50 was > 5.00

The compound `N[C@@H](c1cc(Cl)c(Cl)cc1O)C1CCN(C(=O)Cc2cn[nH]c2)CC1` on UniProt:P22001: pIC50 was > 6.30

The compound `CN1CC[C@@H](C(=O)N2CCC([C@@H](N)c3cc(Cl)c(Cl)cc3O)CC2)C1` on UniProt:P22001: pIC50 was > 6.30

The compound `CN[C@@H](c1cc(Cl)c(Cl)cc1O)C1CCN(C(=O)[C@H](O)CO)CC1` on UniProt:P22001: pIC50 was > 5.00

====

# target_of_assay: Kv1.3 potassium channel (Homo sapiens, UniProt P22001)
# Sequence (P22001 whole entry): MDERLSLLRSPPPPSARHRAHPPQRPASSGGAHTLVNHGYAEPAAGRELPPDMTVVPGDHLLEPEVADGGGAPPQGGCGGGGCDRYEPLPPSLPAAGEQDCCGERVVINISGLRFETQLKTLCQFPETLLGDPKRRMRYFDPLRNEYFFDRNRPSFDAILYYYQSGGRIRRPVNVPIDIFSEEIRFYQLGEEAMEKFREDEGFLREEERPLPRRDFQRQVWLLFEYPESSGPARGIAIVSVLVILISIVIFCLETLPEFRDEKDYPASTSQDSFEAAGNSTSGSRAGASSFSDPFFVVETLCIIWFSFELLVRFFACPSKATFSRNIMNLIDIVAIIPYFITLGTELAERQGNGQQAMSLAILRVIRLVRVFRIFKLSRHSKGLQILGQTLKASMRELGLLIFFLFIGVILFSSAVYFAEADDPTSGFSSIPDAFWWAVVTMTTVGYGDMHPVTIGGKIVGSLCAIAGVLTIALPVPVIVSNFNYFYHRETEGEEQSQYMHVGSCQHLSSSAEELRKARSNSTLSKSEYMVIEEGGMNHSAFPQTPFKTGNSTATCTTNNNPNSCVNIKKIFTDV
# protocol: Kv1.3 potassium channel blocker activity, automated whole-cell patch clamp (Patchliner)
# stated_conditions: CHO-K1 cells stably expressing Kv1.3; whole cell current inhibition; read-out: Kv1.3_IC50
pIC50: −log10 of the molar value.
recorded_endpoint: pIC50

The molecule listed as C[C@@H](O)[C@@H](O)C(=O)N1CCC([C@@H](N)c2cc(Cl)c(Cl)cc2O)CC1 (mixture of isomers) shows pIC50 equal to > 6.30

The molecule listed as O=C1CCCN1C(c1cc(Cl)c(Cl)cc1O)C1CCNCC1 (stereo not shown) shows pIC50 equal to > 5.00

The molecule listed as `CC(C)(CO)C(=O)N1CCC([C@@H](N)c2cc(Cl)c(Cl)cc2O)CC1` shows pIC50 equal to > 5.00

The molecule listed as `N[C@@H](c1cc(Cl)c(Cl)cc1O)C1CCN(C(=O)CC2CNC2)CC1` shows pIC50 equal to > 6.30

The molecule listed as `N[C@@H](c1cc2ccccc2cc1O)C1CCN(C(=O)[C@H](O)CO)CC1` shows pIC50 equal to > 6.30

The molecule listed as `N[C@H](c1cc(Cl)c(Cl)cc1O)C1CCN(C(=O)[C@H]2CCNC2)CC1` shows pIC50 equal to > 5.00

The molecule listed as OCC(c1cc(Cl)c(Cl)cc1O)C1CCNCC1 (stereo not shown) shows pIC50 equal to > 5.00

Source: patent US20230023559A1
